Listing of entries alongside the reported inhibition of growth at 2 ppm.
Test system: Pythium ultimum
Test: Amended agar assay
Type: cell-based
Details: Globisporangium ultimum; amended PDA agar, 2 ppm, % reduction in colony growth vs control plate, 18° C.

I'd like to know its inhibition of growth at 2 ppm. The compound in question is Cn1nnnc1-n1c(OCc2cccc(NC3CCCC3)n2)nc2ccccc21
> 99%

I'd like to know its inhibition of growth at 2 ppm. The compound in question is Cn1nnnc1-n1c(OCc2cccc(NCc3ccc(F)cc3)n2)nc2ccccc21
> 99%

I'd like to know its inhibition of growth at 2 ppm. The compound in question is Cn1nnnc1-n1c(OCc2cccc(NCC3CC3)n2)nc2c(F)cccc21
> 99%

I'd like to know its inhibition of growth at 2 ppm. The compound in question is COCCCOc1ccnc(COc2nc3ccccc3n2-c2ncncc2Cl)c1C
50 to 99%

I'd like to know its inhibition of growth at 2 ppm. The compound in question is Cn1nnnc1-n1c(OCc2cccc(NCC3CC3)n2)nc2c(Br)cccc21
> 99%

I'd like to know its inhibition of growth at 2 ppm. The compound in question is CCCNc1cccc(COc2nc3ccccc3n2-c2nnnn2C)n1
> 99%

I'd like to know its inhibition of growth at 2 ppm. The compound in question is COc1ccc(COc2nc3ccccc3n2-c2nnnn2C)nc1
< 50%

I'd like to know its inhibition of growth at 2 ppm. The compound in question is Cn1nnnc1-n1c(OCc2cccc(NCc3ccccc3)n2)nc2c(Cl)cccc21
> 99%

I'd like to know its inhibition of growth at 2 ppm. The compound in question is Cn1nnnc1-n1c(OCc2cc([N+](=O)[O-])ccn2)nc2c(Cl)cccc21
50 to 99%

I'd like to know its inhibition of growth at 2 ppm. The compound in question is COc1cc(F)cc2c1nc(OCc1ccccn1)n2-c1nnnn1C
50 to 99%

I'd like to know its inhibition of growth at 2 ppm. The compound in question is Cn1nnnc1-n1c(OCc2cccc(NCC3CC3)n2)nc2c(Cl)cccc21
> 99%

I'd like to know its inhibition of growth at 2 ppm. The compound in question is COCCCOc1ccnc(COc2nc3ccccc3n2-c2nnnn2C)c1C
< 50%

I'd like to know its inhibition of growth at 2 ppm. The compound in question is CCOc1ccnc(COc2nc3ccccc3n2-c2nnnn2C)c1
> 99%
